Origin of the recorded values: ChEMBL document CHEMBL5500422

# System: HEK293
# procedure-text: Antiproliferative activity against HEK293 cells assessed as inhibition of cell growth incubated for 48 hrs by CCK8 assay
# Type: functional, cell-based
# condition-info: Homo sapiens, HEK293, 48 h
quantity-kind: pIC50
Scale: pIC50 equals -log10([C]), with [C] in mol/L.

Problem: Find the measured pIC50: item C[C@@H]1COCCN1c1cc(N=[S@@](C)(=O)C2CC2)nc(-c2ccnc(N)c2)n1 , target or system HEK293.
Result: 5.10

---

# measured-on: Ubiquitin carboxyl-terminal hydrolase 1 (Homo sapiens)
# Sequence (O94782 whole entry): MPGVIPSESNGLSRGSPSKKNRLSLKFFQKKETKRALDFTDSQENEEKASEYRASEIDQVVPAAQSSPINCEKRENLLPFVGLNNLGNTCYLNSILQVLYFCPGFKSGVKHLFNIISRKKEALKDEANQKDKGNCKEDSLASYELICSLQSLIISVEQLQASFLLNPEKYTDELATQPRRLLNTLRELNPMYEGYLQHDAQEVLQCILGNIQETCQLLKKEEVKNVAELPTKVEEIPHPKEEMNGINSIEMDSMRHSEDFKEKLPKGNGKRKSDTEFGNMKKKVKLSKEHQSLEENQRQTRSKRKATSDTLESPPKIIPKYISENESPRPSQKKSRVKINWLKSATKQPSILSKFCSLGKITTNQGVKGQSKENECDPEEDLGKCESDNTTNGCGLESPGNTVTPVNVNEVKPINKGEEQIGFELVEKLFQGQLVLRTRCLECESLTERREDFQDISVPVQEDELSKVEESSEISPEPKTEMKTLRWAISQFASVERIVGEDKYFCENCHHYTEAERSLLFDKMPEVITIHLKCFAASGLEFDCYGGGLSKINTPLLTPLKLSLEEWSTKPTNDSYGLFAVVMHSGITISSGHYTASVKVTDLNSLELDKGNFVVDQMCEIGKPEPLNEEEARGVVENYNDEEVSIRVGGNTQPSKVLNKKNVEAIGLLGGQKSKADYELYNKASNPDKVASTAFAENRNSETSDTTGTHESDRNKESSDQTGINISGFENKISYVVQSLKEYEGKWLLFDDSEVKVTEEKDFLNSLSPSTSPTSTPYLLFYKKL
# procedure-text: Inhibition of human recombinant USP1 expressed in baculovirus expressed in Bac-to-Bac baculovirus expression system
quantity-kind: pIC50
Please keep in mind that pIC50 is minus log10 of the molar concentration; only the number is needed.

Problem: # query: pIC50 of entry CC(C)c1ccccc1-c1ncc2[nH]c(=O)n(Cc3ccc(-c4nc(C(F)(F)F)cn4C)cc3)c2n1
Result: 8.39
